valueType: melting point

Task: # melting point lookup, item COc1cc2c(c(Cl)c1Cl)S(=O)(=O)C(c1ccccc1F)=C2
Output: 267 to 268 °C

Task: # input compound: CN(C(=O)CCS(C)(=O)=O)c1nnc(-c2cccnc2)s1 ; wanted: its melting point
Output: 199 to 201 °C

Task: Which melting point value belongs to CN(C)CCCN(c1ccccc1)c1ncccc1NC(=O)c1ccccc1Cl ?
Output: 90 to 92 °C

Task: // melting point lookup, key: CN(CC(=O)O)C(=O)CCc1cccc(-c2nc(=O)c3ccccc3s2)n1
Output: 194 to 195 °C

Task: Which melting point reading was recorded for the compound O=S1(=O)c2cccc3cccc(c23)N1CCN1CCN(c2noc3ccccc23)CC1 ?
Output: 148 °C

Task: Fill in the blank: the reported melting point of N=C(Nc1cccc(NC(=O)/C=C/c2cccc(Cl)c2)c1)c1ccccc1 is ____.
Output: 260 to 262 °C

Task: Look up melting point: NC(=O)c1cnccc1-c1ccccc1C(=O)N1Cc2ccccc2Cc2ccccc21
Output: 217 to 220 °C

Task: Reported melting point for Cc1sc2c(c1CCN1CCC(c3noc4cc(F)ccc34)CC1)CCNC2 : what is it?
Output: 88 to 90 °C

Task: Please give the measured melting point for this compound: CN1CCCC(Nc2nc3ccccc3[nH]2)CC1 (stereo not given)
Output: 168 °C

Task: // query melting point value for entry CC1c2ccccc2CC(=O)Cc2ccccc21
Output: 152 to 155 °C
